test system: Key Grass and Sedge Weeds as well as Grass Crops; experiment: Post-Emergent Test II (Table 6); assay type: in vivo; conditions: post-emergence, 336 h, ZEAMX: maize, corn (Zea mays), 70 g ai/ha, 14 days after application, read-out: Visual Growth Reduction (%) 14 Days After Application ZEAMX
property-name: pest or weed control at 70 g/ha

{"columns": ["compound-structure", "target-entity", "property-name", "reported-result"],
 "data": [
  ["COC(=O)c1nc(-c2ccc(OC)nc2)c(F)c(N)c1Cl", "Key Grass and Sedge Weeds as well as Grass Crops", "pest or weed control at 70 g/ha", "95 to 100%"],
  ["COc1c(-c2cc(N)c(Cl)c(C(=O)O)n2)ccc(Cl)c1F", "Key Grass and Sedge Weeds as well as Grass Crops", "pest or weed control at 70 g/ha", "0 to 29%"],
  ["Nc1cc(-c2ccc(Cl)c(F)c2CO)nc(C(=O)O)c1Cl", "Key Grass and Sedge Weeds as well as Grass Crops", "pest or weed control at 70 g/ha", "0 to 29%"]
]}

Field: pest or weed control at 70 g/ha. Fill in for each record below.
1. COC(=O)c1nc(-c2ccc(Br)nc2)c(F)c(N)c1Cl
2. COC(=O)c1nc(-c2ccc(C(F)(F)F)c(F)c2C)cc(N)c1Cl
3. COC(=O)c1nc(-c2ccc(Cl)c(OC)c2C(F)F)cc(N)c1Cl
4. Cc1c(-c2nc(C(=O)O)c(Cl)c(N)c2F)ccc(Cl)c1F
5. COC(=O)c1nc(-c2ccc(Cl)c(F)c2OC)cc(N)c1Cl

Given back:
["85 to 94%", "0 to 29%", "0 to 29%", "0 to 29%", "85 to 94%"]
